study-system: Cytochrome P450 3A4 (Homo sapiens) (UniProt P08684)
Sequence (P08684 whole entry, looked up): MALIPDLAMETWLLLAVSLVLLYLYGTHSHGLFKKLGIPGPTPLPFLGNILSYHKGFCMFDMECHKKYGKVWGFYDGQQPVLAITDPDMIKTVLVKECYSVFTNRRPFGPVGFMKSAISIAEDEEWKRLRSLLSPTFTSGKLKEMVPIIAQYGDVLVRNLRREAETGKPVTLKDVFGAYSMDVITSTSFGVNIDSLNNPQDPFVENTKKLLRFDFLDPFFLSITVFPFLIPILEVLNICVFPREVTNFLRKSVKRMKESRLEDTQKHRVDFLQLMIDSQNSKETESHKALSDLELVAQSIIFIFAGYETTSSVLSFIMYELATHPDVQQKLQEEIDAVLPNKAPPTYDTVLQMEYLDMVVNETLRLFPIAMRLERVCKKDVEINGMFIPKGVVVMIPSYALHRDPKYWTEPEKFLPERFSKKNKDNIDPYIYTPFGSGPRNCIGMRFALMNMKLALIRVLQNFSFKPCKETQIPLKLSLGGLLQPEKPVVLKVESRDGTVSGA
assay: qHTS Assay for Activators of Cytochrome P450 3A4 (AID 885); note: nearly all actives have a fitted effect of over 65% in size
conditions-used: recombinant CYP3A4, Luciferin-PPXE luminescence, 60 min; series mostly up to 57.1 µM
Calls of active or inactive are those of the source. Calls come from the whole dose curve; as a rule, active = well fitted activation curve with a large enough effect; inconclusive = small, poorly fitted or top-dose-only effect; inactive = no such curve, though single readings can be large or run the other way.
property-name: activity change, positive = activation

query: Param readout= activity change, positive = activation; system= Cytochrome P450 3A4 (Homo sapiens) (UniProt P08684); entry= COc1cccc(Nc2ncc3nc(-c4cc(F)cc(F)c4)c(=O)n(CCC#N)c3n2)c1 ; returns value.
result: inactive

query: Param readout= activity change, positive = activation; system= Cytochrome P450 3A4 (Homo sapiens) (UniProt P08684); entry= COc1cccc(Nc2ncc3nc(-c4ccc(F)cc4)c(=O)n(CCC#N)c3n2)c1 ; returns value.
result: inactive

query: Param readout= activity change, positive = activation; system= Cytochrome P450 3A4 (Homo sapiens) (UniProt P08684); entry= CC(C)=CCc1c2c(c3occ(-c4ccc(O)cc4)c(=O)c3c1O)C=CC(C)(C)O2 ; returns value.
result: inactive

query: Param readout= activity change, positive = activation; system= Cytochrome P450 3A4 (Homo sapiens) (UniProt P08684); entry= COc1ccccc1-c1nc(Nc2ccncc2)c2ccccc2n1 ; returns value.
result: inactive

query: Param readout= activity change, positive = activation; system= Cytochrome P450 3A4 (Homo sapiens) (UniProt P08684); entry= N#Cc1cccc(-c2nc(NCCN3CCOCC3)c3ccccc3n2)c1 ; returns value.
result: inactive

query: Param readout= activity change, positive = activation; system= Cytochrome P450 3A4 (Homo sapiens) (UniProt P08684); entry= CN(C)C(=O)c1ccc(-c2ccc3ncnc(Nc4ccc(F)cc4)c3c2)cc1 ; returns value.
result: inactive

query: Param readout= activity change, positive = activation; system= Cytochrome P450 3A4 (Homo sapiens) (UniProt P08684); entry= COc1ccc2[nH]cc(CCNc3ncnc4ccc(-c5ccccc5OC)cc34)c2c1 ; returns value.
result: inactive

query: Param readout= activity change, positive = activation; system= Cytochrome P450 3A4 (Homo sapiens) (UniProt P08684); entry= Nc1nc(-c2ccc(Cl)c(Cl)c2)c(-c2ccncc2)s1 ; returns value.
result: inactive

Next:
query: Param readout= activity change, positive = activation; system= Cytochrome P450 3A4 (Homo sapiens) (UniProt P08684); entry= Clc1ccccc1-c1nc(Nc2ccncc2)c2ccccc2n1 ; returns value.
result: inactive

query: Param readout= activity change, positive = activation; system= Cytochrome P450 3A4 (Homo sapiens) (UniProt P08684); entry= COc1ccc2c(=O)c(OC)c(-c3ccccc3)oc2c1 ; returns value.
result: inactive

====

assay: Cell Viability - LYMP2-004 (AID 966);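 note: cells exposed to compound for 24 h; plate controls were DMSO only for no effect and tetraoctylammonium bromide control for full effect; nearly all actives have a fitted effect of over 65% in size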
conditions-used: LYMP2-004 lymphoblastoid cell viability, qHTS; series mostly up to 92.2 µM
Records with an inconclusive call do not appear. The source made the active and inactive calls. The call rests on the fitted dose curve; in most records, active means well fitted cell-killing curve with a large enough effect; inconclusive means small, poorly fitted or top-dose-only effect, or effect the other way; inactive means no such curve, though single readings can be large or run the other way.
// allowed return values: true (active), false (inactive)

query: Can you look up the reported call for CCCCCCCCCCCCCCC1CO1 (centres undefined) for me?
result: false

Next:
query: Can you look up the reported call for C=C(C)C1CC=C(C)C(O)C1 (centres undefined) for me?
result: false

query: Can you look up the reported call for O=C(/C=C/c1ccc(O)c(O)c1)O[C@@H](C(=O)O)[C@@H](OC(=O)/C=C/c1ccc(O)c(O)c1)C(=O)O for me?
result: false

query: Can you look up the reported call for C/C=C\c1ccc(OC)cc1 for me?
result: false

query: Can you look up the reported call for CN(C)CCCCCCN(C)C for me?
result: false

query: Can you look up the reported call for O=C1CCc2ccccc2O1 for me?
result: false

query: Can you look up the reported call for CC(=O)OC/C=C(\C)CCC=C(C)C for me?
result: false

query: Can you look up the reported call for CC12CCC(CC1=O)C2(C)C (centres undefined) for me?
result: false

query: Can you look up the reported call for C[C@H](CCC(=O)O)[C@H]1CC[C@H]2[C@@H]3CC[C@@H]4C[C@H](O)CC[C@]4(C)[C@H]3CC[C@]12C for me?
result: false

query: Can you look up the reported call for CN(C)C=O for me?
result: false

query: Can you look up the reported call for O=NO for me?
result: false

query: Can you look up the reported call for Nc1ccc(S(=O)(=O)O)cc1 for me?
result: false

query: Can you look up the reported call for C=Cc1ccccc1Cl for me?
result: false

query: Can you look up the reported call for Cc1ccccc1C for me?
result: false

query: Can you look up the reported call for COc1c2ccoc2cc2oc(=O)ccc12 for me?
result: false

query: Can you look up the reported call for O=S(=O)(O)c1ccccc1 for me?
result: false

====

study-system: Rap guanine nucleotide exchange factor 3 (Homo sapiens)
assay: Counterscreen qHTS for antagonist of cAMP-regulated guanine nucleotide exchange factor 3 (EPAC1) (AID 1645888);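 note: fluorescence loss as bound BODIPY-GDP is released from Rap1B; % of control where 0% means no effect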
conditions-used: Rap1B-BODIPY-GDP nucleotide exchange, fluorescence; series mostly up to 154 µM
Records with an inconclusive call do not appear. Calls of active or inactive are those of the source. Calls follow the shape of the dose curve; as a rule, active = well fitted inhibition curve with a large enough effect; inconclusive = small, poorly fitted or top-dose-only effect; inactive = no such curve, though single readings can be large or run the other way.
property-name: activity change, negative = inhibition

# annotated cases, reported activity change, negative = inhibition shown
query: Given the molecule c1ccc(-c2cn3nc(-c4ccccc4)c(-c4ccccc4)nc3n2)cc1 , what is its reported activity change, negative = inhibition?
result: 14.3% [at 30.8 µM] (inactive)

query: Given the molecule CN(CC(=O)Nc1cccc(F)c1)C(=O)/C=C/c1cc(Br)ccc1OC(F)F , what is its reported activity change, negative = inhibition?
result: inactive

query: Given the molecule O=c1oc2ccccc2n1Cc1ccccc1Cl , what is its reported activity change, negative = inhibition?
result: inactive

query: Given the molecule COC(=O)c1c(NC(=O)c2ccc(S(=O)(=O)N3CCCCC3C)cc2)sc2c1CCN(C(C)C)C2 (configuration not stated) , what is its reported activity change, negative = inhibition?
result: inactive

query: Given the molecule COC1=C(Nc2ccc(O)cc2)C(=O)c2ccccc2C1=O , what is its reported activity change, negative = inhibition?
result: 4.79% [at 30.8 µM] (inactive)

Next:
query: Given the molecule Cc1ccc(N(C(=O)c2ccccc2Cl)C2=NC(C)CS2)c(C)c1 (configuration not stated) , what is its reported activity change, negative = inhibition?
result: -24.5% [at 30.8 µM] (inactive)

query: Given the molecule COC(=O)c1ccc(OCC2c3cc(OC)c(OC)cc3CCN2C(=O)c2ccc(OC)cc2)cc1 (configuration not stated) , what is its reported activity change, negative = inhibition?
result: inactive

query: Given the molecule CCC(=O)N(CCC1(c2ccccc2OC)CCOC(C(C)C)C1)Cc1ccco1 (configuration not stated) , what is its reported activity change, negative = inhibition?
result: -14.7% [at 30.8 µM] (inactive)

query: Given the molecule CC(C)Oc1nc(-c2ccccc2Cl)nc2ccccc12 , what is its reported activity change, negative = inhibition?
result: inactive

query: Given the molecule O=C(CSc1ncnc2[nH]ncc12)Nc1cccc(Oc2ccccc2)c1 , what is its reported activity change, negative = inhibition?
result: -9.96% [at 30.8 µM] (inactive)

query: Given the molecule CC1=NN(c2ccc(C)c(C)c2)C(=O)C1C(c1cccc(O)c1)C1C(=O)N(c2ccc(C)c(C)c2)N=C1C (configuration not stated) , what is its reported activity change, negative = inhibition?
result: 19.9% [at 30.8 µM] (inactive)

query: Given the molecule O=C(/C=C/c1cccc(Cl)c1Cl)OCC(=O)N1CCOCC1 , what is its reported activity change, negative = inhibition?
result: inactive

query: Given the molecule O=c1ccc(-c2ccccc2)nn1Cc1ccc(Cl)cc1 , what is its reported activity change, negative = inhibition?
result: inactive

query: Given the molecule CC1CN(c2nc(-c3ccccc3)nc3ccccc23)CC(C)O1 (configuration not stated) , what is its reported activity change, negative = inhibition?
result: 3.46% [at 30.8 µM] (inactive)

====

study-system: Rap guanine nucleotide exchange factor 3 (Homo sapiens)
assay: Confirmatory qHTS for agonist of cAMP-regulated guanine nucleotide exchange factor 3 (EPAC1) (AID 1645881);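 note: EPAC1 catalysed release of BODIPY-GDP from Rap1B seen as fluorescence loss; 100% = effect of cAMP agonist control; nearly all actives have a fitted effect of over 75% in size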
conditions-used: EPAC1 Rap1B BODIPY-GDP exchange fluorescence; series mostly up to 154 µM
Records with an inconclusive call do not appear. Active and inactive are the calls of the source. The call rests on the fitted dose curve; in most records, active means well fitted activation curve with a large enough effect; inconclusive means small, poorly fitted or top-dose-only effect; inactive means no such curve, though single readings can be large or run the other way.
// allowed return values: active, inactive

query: Can you look up the reported call for CN(CC(=O)Nc1cccc(F)c1)C(=O)c1cccc(S(=O)(=O)N2CC3(C)CC2CC(C)(C)C3)c1 (stereo not drawn) for me?
result: inactive

query: Can you look up the reported call for CCOC(=O)[C@H](C)N1[C@H](C)[C@H](c2ccccc2)Oc2ccc(Cl)cc2S1(=O)=O for me?
result: inactive

query: Can you look up the reported call for CCOC(=O)c1cc2c(=O)n3ccccc3nc2n(C(C)C)c1=NC(=O)c1cc2ccccc2o1 for me?
result: inactive

query: Can you look up the reported call for Cn1c(SCC(=O)c2ccc3c(c2)Cc2ccccc2-3)nnc1-c1ccccc1 for me?
result: inactive

query: Can you look up the reported call for CN(CC(=O)Nc1ccccc1Sc1ccccc1)C1CCCCC1 for me?
result: inactive

query: Can you look up the reported call for O=C(c1ccccc1)c1cccc2ccccc12 for me?
result: inactive

query: Can you look up the reported call for O=S(=O)(Nc1nccs1)c1ccc(Nc2nnc(-c3ccccc3)c3ccccc23)cc1 for me?
result: inactive

query: Can you look up the reported call for CCOC(=O)c1cc2n(c1/N=C/N(C)C)-c1ccccc1C2=O for me?
result: inactive

query: Can you look up the reported call for Cc1ccc(NC(=O)CN2C(=O)S/C(=C\c3cccn3-c3cccc(C(=O)O)c3)C2=O)cc1C for me?
result: inactive

query: Can you look up the reported call for CC(=O)Nc1cccc(/C(C)=N/Nc2ccc(S(=O)(=O)Nc3ccccc3C(=O)O)cc2[N+](=O)[O-])c1 for me?
result: inactive

Next:
query: Can you look up the reported call for Brc1ccc(/C=N/Nc2nc3ccccc3o2)cc1 for me?
result: inactive

query: Can you look up the reported call for CCN(CC)CCOC(=O)c1ccc(NC(=O)c2nn(-c3ccc(C)cc3)c(=O)c3c2c2ccccc2n3C)cc1 for me?
result: inactive

query: Can you look up the reported call for Cc1ccc(CN(C(=O)COc2cccc([N+](=O)[O-])c2)c2ccccn2)cc1 for me?
result: inactive
